- experiment summary: in vitro
- test parameters: human, hela cells, % viability
Could you please report measured viability at 28.5 h, 10 µM for the items listed next?
Provide the reading as a plain figure in %.

Need viability at 28.5 h, 10 µM of CCC(CC)C(=O)N1CCCC1c1n[nH]cc1-c1ccncc1 (stereo not drawn) , thanks.
87.9

Let us now turn to CCc1ccc(CNC(=O)Cn2nnc(-c3ccc(C(C)N4CCC(C)CC4)cc3)n2)cc1 (stereo not drawn) [CBK164199T]
97.5

Similarly, `Cc1nc2c(c(=O)[nH]1)CN(Cc1sccc1C)CC2` ?
91.1

Note, next up: OC(CN1CCC(O)(c2ccccc2F)CC1)c1ccccc1 (stereo not drawn)
107

Another compound: `COc1ccc(CNC(=O)N(Cc2cccnc2)Cc2ccc3c(c2)OCO3)cc1OC`
87.3

Now try `NS(=O)(=O)c1ccc(NC(=O)CN2CCC(Cc3ccccc3)CC2)cc1` .
98.6

Moving on to the next compound: `CNC(=S)N/N=C/c1c(C)cccc1Cl`
84.6

Same question for CN(CC1(C)COC1)C(=O)C1CC(=O)N(C(C)(C)C)C1 (stereo not drawn) please.
112

And then `Cc1cccc(C(=O)N2CCN(S(=O)(=O)c3sc(C(=O)O)c(C)c3C(=O)O)CC2)c1` , what is it?
91.4

====

Exercise: state measured viability at 28.5 h, 10 µM for each of the compounds provided.
- experiment summary: in vitro
- test parameters: human, hela cells, % viability
Quick reminder: number only, in %, skip the unit.

Find the recorded viability at 28.5 h, 10 µM belonging to `O=C1NNC=Cc2c1cnc1nc(C(F)(F)F)nn21` and report it.
93.3

Could you do the same for `Cc1sc(NC(=O)CN(Cc2cnn(C)c2)C(C)C)c(C#N)c1C` , please?
93.1

Same question, Cc1csc(C(Cc2ccsc2)NC(=O)C2CCCO2)n1 (centres unmarked) this time
107

Now this one: `COc1ccc([C@@]23CC[C@H](NC(=O)c4[nH]cnc4C)C[C@@H]2N(C)CC3)cc1OC`
118

Check O=c1[nH]cnc2c1cnn2[C@@H]1O[C@H](CO)[C@H](O)C1O (some centres unmarked) too.
95.8

What do we get for COc1cc(/C=N/NC(=O)C2COc3ccccc3O2)cc([N+](=O)[O-])c1O (centres unmarked) ?
89.1

For `Cn1c(-c2ccc(-c3nc4cnccc4n3C)cc2)nc2cnccc21` then?
106

Also need CC(=O)Nc1cccc(CN2CCCC(CO)C2)c1 (centres unmarked) , thanks.
91.9

Also, `Cc1cc(NC(=O)Cc2cn3ccsc3n2)ccc1N1CCCC1` please.
79.8

And what about the compound Cc1ccc(Cl)c(OC(C)C(=O)N(CCCO)Cc2ccncc2)c1 (centres unmarked) ?
109

Also check `COc1ccc(Nc2cc(Cl)ccc2C(=O)N2CCN(c3ncccn3)CC2)cn1`
89.9

Try CC(C)c1ccc(C(C)NC(=O)Cn2cc(C(=O)Nc3ccc(F)cc3)ccc2=O)cc1 (centres unmarked) next.
97.6

And the next one, `O=C1c2ccccc2C(=O)N1CCCSc1nnc(-c2ccncc2)n1-c1ccccc1` ?
102

Same lookup for `CCc1nnc(NS(=O)(=O)c2ccc(NC(=O)COc3ccc(Cl)cc3Cl)cc2)s1` , please.
108

Same lookup for `CC(C)Oc1ncc(C(=O)Nc2cnn(CC(N)=O)c2)cc1Cl` , please.
90.4

Now consider `CS(=O)(=O)NC1CCN(c2nc(C(F)(F)F)nc3ccsc23)CC1` .
109

And the next one, CCc1c(C(=O)NC(C)c2cccc(Cl)c2)cnc2cc(O)nn12 (centres unmarked) ?
95

And then `CN(C)CCN1CCN(c2nc(Br)cn3ccnc23)CC1` , what is it?
91.3

Could you do the same for `O=c1oc2ccccc2c2nc(-c3ccncc3)ncc12` , please?
108

Query O=C(O)C(Cc1ccc(O)cc1)N1C(=O)c2ccccc2C1=O (centres unmarked) next
84.1

Next compound up: `CCc1nn(CC(=O)NC(C)C)c(=O)c2cc3ccsc3n12`
82.6

Request: `O=C(O)CCCC(=O)Nc1ccccc1-c1nc2ccccc2[nH]c1=O`
85.9

Same read-out for `FC(F)(F)c1ccncc1-n1cccc1` ?
85.9

Same lookup for `C#CCNC(=O)[C@@H]1Cc2cn(Cc3c(C)noc3C)c3cccc(c23)[C@H](CC(C)C)N1` , please.
93.7

Now the same for `O=C(Nc1nnc(C2=COCCO2)o1)c1ccc(Cl)cc1Cl`
78

Try this compound too: `CCc1nn(CC(=O)N2CCCC2)c(=O)c2cc3oc(C)cc3n12`
110

Now the compound `CCCC/C=C/c1nccnc1NCc1cccs1`
101

Thanks! And `N#Cc1ccc(CNC(=O)c2ccc(-c3ccc(OC(F)(F)F)cc3)nc2)cc1` ?
87.2

Subsequent entry: COc1ccccc1Cn1ncc2c1CCCC2NC(=O)C1CCC1 (centres unmarked)
110

Same question, `CCn1c(C)c(C)n2c3c(=O)n(CCN4CCOCC4)c(=O)n(C)c3nc12` this time
90.6

Continue with `O=C(Nc1cccc(C(=O)O)c1)/C(=C\c1ccc2c(c1)OCO2)NC(=O)c1ccc(Br)o1`
99

Next compound: `Cc1cc(C)cc(C(=O)NC(=S)Nc2sc(C)c(C)c2C#N)c1`
92.1

Continue with CC(C)C(C(=O)O)N1C(=O)C2C3C=CC(C3)C2C1=O (centres unmarked)
84

// query: `O=C(Cn1c(-c2cccs2)cc2cccnc21)NC1CC1`
101

`FC(F)(F)c1ccnc(Sc2cccs2)n1` ?
87.7

Try this compound too: `Cc1ccnc(NS(=O)(=O)c2ccc(NS(=O)(=O)c3ccc(F)cc3)cc2)n1`
102

Similarly, `O=C(CSc1nnc(-c2ccco2)o1)Nc1cccc2nsnc12` ?
93.2

Try this compound too: `Nc1nonc1-c1nc2ccccc2n1Cc1cc2c(cc1Br)OCO2`
105

The measured values listed here are drawn from paper PMC12040169.
